Entries and their measured pIC50 follow.
Molecular target: Histone deacetylase 1 (Homo sapiens, UniProt Q13547)
Sequence (Q13547 whole entry): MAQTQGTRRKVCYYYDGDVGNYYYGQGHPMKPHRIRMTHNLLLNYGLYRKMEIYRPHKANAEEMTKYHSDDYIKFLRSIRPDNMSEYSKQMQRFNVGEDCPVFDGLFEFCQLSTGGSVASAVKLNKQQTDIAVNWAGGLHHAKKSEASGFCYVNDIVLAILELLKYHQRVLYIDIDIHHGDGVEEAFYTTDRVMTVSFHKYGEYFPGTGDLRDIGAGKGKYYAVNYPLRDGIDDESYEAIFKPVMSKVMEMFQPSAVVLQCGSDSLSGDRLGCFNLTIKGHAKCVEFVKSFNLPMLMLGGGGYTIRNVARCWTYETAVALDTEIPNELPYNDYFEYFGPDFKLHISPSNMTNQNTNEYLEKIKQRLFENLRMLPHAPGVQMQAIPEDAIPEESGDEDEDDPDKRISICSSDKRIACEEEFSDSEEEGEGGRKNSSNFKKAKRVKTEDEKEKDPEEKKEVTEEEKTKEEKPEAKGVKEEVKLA
Experiment: Inhibition of recombinant human His-tagged HDAC1 (482 residues) expressed in baculovirus infected insect cells using Boc Lys(Ac)-AMC as substrate preincubated for 5 mins followed by substrate addition and measured after 30 mins by fluorescence assay
Conceptually, pIC50 converts a concentration in mol/L into minus its log10.

[
  {
    "test.smiles": "CC(C)CCc1c(OCCCOc2cccc(/C=C/C(=O)NO)c2)ccc2c1OC(=O)CC2",
    "reported.measurement": 7.19
  }
]

In: GET /values?readout=pIC50&item= "CC(C)CCc1c(OCCCCOc2ccc(/C=C/C(=O)NO)cc2)ccc2c1OC(=O)CC2"
Out: 6.69

In: Entry "CC(C)CCc1c(OCCOc2ccc(/C=C/C(=O)NO)cc2)ccc2c1OC(=O)CC2" : reported pIC50 = ?
Out: 7.08

In: Give its pIC50 value. Item: "CC(C)CCc1c(OCCOc2cccc(/C=C/C(=O)NO)c2)ccc2c1OC(=O)CC2"
Out: 7.18

---

Measured IC50, listed per entry for reference.
Molecular target: Histone deacetylase (HDAC1 and HDAC2) (Homo sapiens, UniProt Q13547+Q92769)
Assay type: cell-based
Conditions: hela
Return type: number; implicit unit nM.

[
  {
    "test.smiles": "COc1cc(/C=C/C(=O)NO)ccc1OCCCCN(C)C(=O)c1ccccc1O",
    "assayed.system": "Histone deacetylase (HDAC1 and HDAC2) (Homo sapiens, UniProt Q13547+Q92769)",
    "endpoint.name": "IC50",
    "reported.measurement": 220
  },
  {
    "test.smiles": "COc1cc(/C=C/C(=O)NO)ccc1OCCN(C)C(=O)c1ccccc1O",
    "assayed.system": "Histone deacetylase (HDAC1 and HDAC2) (Homo sapiens, UniProt Q13547+Q92769)",
    "endpoint.name": "IC50",
    "reported.measurement": 240
  },
  {
    "test.smiles": "COc1cc(/C=C/C(=O)NO)ccc1OCCCCNC(=O)c1ccccc1O",
    "assayed.system": "Histone deacetylase (HDAC1 and HDAC2) (Homo sapiens, UniProt Q13547+Q92769)",
    "endpoint.name": "IC50",
    "reported.measurement": 220
  },
  {
    "test.smiles": "COc1cc(/C=C/C(=O)NO)ccc1OCCCN(C)C(=O)c1ccccc1O",
    "assayed.system": "Histone deacetylase (HDAC1 and HDAC2) (Homo sapiens, UniProt Q13547+Q92769)",
    "endpoint.name": "IC50",
    "reported.measurement": 180
  }
]

// below: IC50 requested for another compound
In: IC50 lookup needed for "COc1cc(/C=C/C(=O)NO)ccc1OCCCNC(=O)c1ccccc1O" , thanks.
Out: 370

---

Biological target: Histone deacetylase 8 (Homo sapiens, UniProt Q9BY41)
Experiment: Inhibition of HDAC8 (unknown origin) expressed in Escherichia coli using BML-KI-178 as substrate preincubated up to 3 hrs and measured after 35 mins by fluorescence assay
Entries and their measured IC50 follow.
Quick reminder: number only, in µM, skip the unit.

Sample answers from the record:
[
  {
    "test.smiles": "O=C(CCCCCCNC(=O)c1c(-c2ccc(O)cc2)sc2cc(O)ccc12)NO",
    "unit.tag": "µM",
    "IC50": 0.719
  },
  {
    "test.smiles": "O=C(CCCCCCn1cc(-c2ccc(C(=O)c3c(-c4ccc(O)cc4)sc4cc(O)ccc34)cc2)nn1)NO",
    "unit.tag": "µM",
    "IC50": 29.9
  },
  {
    "test.smiles": "O=C(CCCCCn1cc(-c2ccc(C(=O)c3c(-c4ccc(O)cc4)sc4cc(O)ccc34)cc2)nn1)NO",
    "unit.tag": "µM",
    "IC50": 23.5
  }
]

In: Param item = "O=C(CCCCCCCNC(=O)c1c(-c2ccc(O)cc2)sc2cc(O)ccc12)NO" ; retrieve measured IC50.
Out: 0.4

---

Target: UniProtKB Q92769
Sequence (Q92769 whole entry): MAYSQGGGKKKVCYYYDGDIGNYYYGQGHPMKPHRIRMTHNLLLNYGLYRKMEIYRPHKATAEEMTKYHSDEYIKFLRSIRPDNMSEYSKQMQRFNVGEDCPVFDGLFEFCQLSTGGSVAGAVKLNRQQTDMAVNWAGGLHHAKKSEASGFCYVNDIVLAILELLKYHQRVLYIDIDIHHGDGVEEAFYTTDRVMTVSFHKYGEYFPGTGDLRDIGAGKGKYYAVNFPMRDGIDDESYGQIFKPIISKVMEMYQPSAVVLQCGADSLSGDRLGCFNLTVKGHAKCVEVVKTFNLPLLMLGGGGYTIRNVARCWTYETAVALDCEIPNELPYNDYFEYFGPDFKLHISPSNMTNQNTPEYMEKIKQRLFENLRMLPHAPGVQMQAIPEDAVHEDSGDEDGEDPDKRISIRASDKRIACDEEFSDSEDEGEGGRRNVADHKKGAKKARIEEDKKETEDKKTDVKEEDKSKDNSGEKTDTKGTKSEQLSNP
Test: Inhibition of human HDAC2 using fluorogenic HDAC substrate
endpoint.name: IC50 (µM)
Give the number; µM is assumed, so skip it.

Example cases with answers are listed next.
[
  {
    "test.smiles": "O=C(NO)c1ccc(Cn2c3c(c4cc(F)ccc42)CS(=O)(=O)CC3)cc1",
    "assayed.system": "UniProtKB Q92769",
    "reported.measurement": 29
  },
  {
    "test.smiles": "O=C(NO)c1ccc(CN2c3cc(C(F)(F)F)ccc3CCC[C@@H]3CCCC[C@H]32)cc1",
    "assayed.system": "UniProtKB Q92769",
    "reported.measurement": 16
  },
  {
    "test.smiles": "O=C(NO)c1ccc(Cn2c3c(c4ccccc42)CS(=O)(=O)CC3)cc1",
    "assayed.system": "UniProtKB Q92769",
    "reported.measurement": 26
  }
]

In: Requested read-out: IC50. Entry: "O=C(NO)c1ccc(CN2c3ccccc3CCC[C@@H]3CCCC[C@H]32)cc1"
Out: 24

In: Consider the compound shown here: "O=C(NO)c1ccc(CN2c3ccccc3CC[C@@H]3CCCC[C@H]32)cc1" What is its recorded IC50?
Out: 26

---

Target: Histone deacetylase 8 (Homo sapiens, UniProt Q9BY41)
Sequence (Q9BY41 whole entry): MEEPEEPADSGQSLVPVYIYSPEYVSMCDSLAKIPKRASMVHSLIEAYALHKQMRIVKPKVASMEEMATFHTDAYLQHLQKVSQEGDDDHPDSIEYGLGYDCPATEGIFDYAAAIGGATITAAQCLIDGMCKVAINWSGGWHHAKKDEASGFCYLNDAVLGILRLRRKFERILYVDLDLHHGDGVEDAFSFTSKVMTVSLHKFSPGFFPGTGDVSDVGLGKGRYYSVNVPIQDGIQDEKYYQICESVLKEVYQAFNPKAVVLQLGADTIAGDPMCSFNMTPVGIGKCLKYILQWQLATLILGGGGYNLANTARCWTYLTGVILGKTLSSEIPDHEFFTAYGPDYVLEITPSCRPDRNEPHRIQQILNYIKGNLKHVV
Test: Inhibition of human HDAC8 using fluorogenic HDAC substrate
endpoint.name: IC50 (nM)
State the answer as a number, implicitly in nM.

Answered cases to consult:
[
  {
    "compound": "O=C(NO)c1ccc(Cn2c3c(c4cc(F)ccc42)C[S+]([O-])CC3)cc1 (stereo not drawn)",
    "reported.measurement": 2400
  },
  {
    "compound": "O=C(NO)c1ccc(Cn2c3c(c4cc(F)ccc42)CS(=O)(=O)CC3)cc1",
    "reported.measurement": 900
  },
  {
    "compound": "O=C(NO)c1ccc(CN2c3ccccc3CC[C@@H]3CCCC[C@H]32)cc1",
    "reported.measurement": 2900
  },
  {
    "compound": "O=C(NO)c1ccc(CN2c3ccccc3C3C2CCS3(=O)=O)cc1 (stereo not drawn)",
    "reported.measurement": 1900
  },
  {
    "compound": "O=C(NO)c1ccc(CN2c3ccccc3CCC[C@@H]3CCCC[C@H]32)cc1",
    "reported.measurement": 1100
  }
]

In: Return reported IC50; argument: "O=C(NO)c1ccc(CN2c3ccccc3C[C@@H]3CCCC[C@H]32)cc1"
Out: 5300

In: For "O=C(NO)c1ccc(CN2c3cc(C(F)(F)F)ccc3CCC[C@@H]3CCCC[C@H]32)cc1" , what is its reported IC50?
Out: 2000

In: Query (compound): "O=C(NO)c1ccc(CN2c3ccccc3C[C@@H]3CCCCC[C@H]32)cc1" ; field requested: IC50
Out: 6700

---

Target: Histone deacetylase 3/Nuclear receptor corepressor 2 (HDAC3/NCoR2) (Homo sapiens, UniProt O15379)
Sequence (O15379 whole entry, the tested form may be a part): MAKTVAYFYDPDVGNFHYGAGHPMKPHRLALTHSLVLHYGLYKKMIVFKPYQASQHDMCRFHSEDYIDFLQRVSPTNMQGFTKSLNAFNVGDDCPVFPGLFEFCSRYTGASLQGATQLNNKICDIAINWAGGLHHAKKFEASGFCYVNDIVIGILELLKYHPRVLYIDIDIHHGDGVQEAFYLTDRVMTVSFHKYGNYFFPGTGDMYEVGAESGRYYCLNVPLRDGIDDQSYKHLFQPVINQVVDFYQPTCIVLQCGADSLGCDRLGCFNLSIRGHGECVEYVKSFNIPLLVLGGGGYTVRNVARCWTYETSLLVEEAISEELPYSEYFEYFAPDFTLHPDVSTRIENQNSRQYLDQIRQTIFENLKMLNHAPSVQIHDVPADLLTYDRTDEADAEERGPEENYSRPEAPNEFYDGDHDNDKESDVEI
Sequence (Q9Y618 whole entry, further chain, the tested form may be a part): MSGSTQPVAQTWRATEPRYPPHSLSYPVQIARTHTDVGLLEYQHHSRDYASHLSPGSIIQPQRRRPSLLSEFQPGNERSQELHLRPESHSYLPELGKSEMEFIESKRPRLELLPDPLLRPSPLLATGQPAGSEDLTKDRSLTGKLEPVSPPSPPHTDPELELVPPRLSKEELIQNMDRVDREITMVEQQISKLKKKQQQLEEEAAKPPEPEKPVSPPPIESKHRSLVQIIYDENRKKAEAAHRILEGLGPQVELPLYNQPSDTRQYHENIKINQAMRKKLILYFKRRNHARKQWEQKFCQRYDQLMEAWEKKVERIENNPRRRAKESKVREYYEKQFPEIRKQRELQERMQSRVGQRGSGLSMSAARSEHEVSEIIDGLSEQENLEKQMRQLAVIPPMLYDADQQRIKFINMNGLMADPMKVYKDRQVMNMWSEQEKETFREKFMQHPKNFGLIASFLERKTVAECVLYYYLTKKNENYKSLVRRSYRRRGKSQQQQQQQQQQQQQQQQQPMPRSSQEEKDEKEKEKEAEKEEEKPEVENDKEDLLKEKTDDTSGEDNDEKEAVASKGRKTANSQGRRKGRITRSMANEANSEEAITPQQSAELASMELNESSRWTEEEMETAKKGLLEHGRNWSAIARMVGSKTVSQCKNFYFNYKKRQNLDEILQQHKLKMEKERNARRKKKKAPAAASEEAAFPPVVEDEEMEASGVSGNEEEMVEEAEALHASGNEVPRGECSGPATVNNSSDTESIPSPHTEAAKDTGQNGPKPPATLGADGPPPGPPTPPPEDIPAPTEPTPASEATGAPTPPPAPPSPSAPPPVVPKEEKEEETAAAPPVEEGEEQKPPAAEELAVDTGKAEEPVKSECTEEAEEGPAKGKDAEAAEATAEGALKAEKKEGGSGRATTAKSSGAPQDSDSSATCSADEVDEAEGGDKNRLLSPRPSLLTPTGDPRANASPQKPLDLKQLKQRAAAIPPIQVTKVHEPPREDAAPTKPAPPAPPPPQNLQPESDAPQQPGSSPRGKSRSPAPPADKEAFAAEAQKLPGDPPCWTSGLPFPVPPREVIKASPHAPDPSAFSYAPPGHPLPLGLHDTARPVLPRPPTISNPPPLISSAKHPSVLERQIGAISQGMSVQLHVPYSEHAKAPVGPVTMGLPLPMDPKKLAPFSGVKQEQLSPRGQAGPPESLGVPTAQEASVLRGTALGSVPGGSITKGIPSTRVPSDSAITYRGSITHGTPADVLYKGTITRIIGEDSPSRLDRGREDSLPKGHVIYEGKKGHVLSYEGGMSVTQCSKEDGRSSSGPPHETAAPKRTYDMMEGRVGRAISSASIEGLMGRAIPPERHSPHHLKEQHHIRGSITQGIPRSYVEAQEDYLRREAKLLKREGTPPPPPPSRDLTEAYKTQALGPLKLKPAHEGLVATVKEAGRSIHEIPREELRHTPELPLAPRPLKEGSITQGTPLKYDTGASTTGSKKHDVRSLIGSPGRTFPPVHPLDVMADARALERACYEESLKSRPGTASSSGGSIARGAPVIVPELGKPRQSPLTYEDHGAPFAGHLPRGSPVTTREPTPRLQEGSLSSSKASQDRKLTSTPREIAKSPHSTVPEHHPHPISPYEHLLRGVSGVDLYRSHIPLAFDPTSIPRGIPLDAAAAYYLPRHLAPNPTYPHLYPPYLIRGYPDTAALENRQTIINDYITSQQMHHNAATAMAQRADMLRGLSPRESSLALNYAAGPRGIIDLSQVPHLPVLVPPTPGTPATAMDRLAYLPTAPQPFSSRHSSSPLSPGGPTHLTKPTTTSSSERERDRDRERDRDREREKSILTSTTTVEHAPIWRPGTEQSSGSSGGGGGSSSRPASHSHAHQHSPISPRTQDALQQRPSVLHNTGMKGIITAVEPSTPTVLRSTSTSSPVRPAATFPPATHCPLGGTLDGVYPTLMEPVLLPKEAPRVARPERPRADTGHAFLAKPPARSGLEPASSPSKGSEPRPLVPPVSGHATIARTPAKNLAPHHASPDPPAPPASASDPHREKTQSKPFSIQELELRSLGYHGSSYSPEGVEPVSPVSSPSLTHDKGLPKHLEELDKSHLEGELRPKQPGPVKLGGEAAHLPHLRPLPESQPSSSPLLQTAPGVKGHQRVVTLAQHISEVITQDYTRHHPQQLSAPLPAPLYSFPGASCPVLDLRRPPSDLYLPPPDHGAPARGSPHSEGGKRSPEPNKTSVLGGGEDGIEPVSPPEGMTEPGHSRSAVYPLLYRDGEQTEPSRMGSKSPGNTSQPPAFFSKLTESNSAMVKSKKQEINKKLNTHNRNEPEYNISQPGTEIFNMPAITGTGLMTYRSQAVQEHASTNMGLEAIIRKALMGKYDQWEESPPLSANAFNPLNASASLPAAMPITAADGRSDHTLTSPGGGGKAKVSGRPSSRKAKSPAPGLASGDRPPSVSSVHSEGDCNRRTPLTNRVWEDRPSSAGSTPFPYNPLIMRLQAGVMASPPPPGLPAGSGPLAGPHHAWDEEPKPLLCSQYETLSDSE
Assay: Inhibition of human recombinant full length C-terminal His-tagged HDAC3 (1 to 428 residues)/N-terminal GST-tagged NCOR2 (395 to 489 residues) expressed in insect cells using Boc-l-Lys(Ac)-AMC as substrate preincubated up to 3 hrs and measured after 35 mins by fluorescence assay
Parameter IC50: see the listing below.

[
  {
    "test.smiles": "O=C(CCCCCCCNC(=O)c1c(-c2ccc(O)cc2)sc2cc(O)ccc12)NO",
    "IC50": "128 nM"
  },
  {
    "test.smiles": "O=C(CCCCCCNC(=O)c1c(-c2ccc(O)cc2)sc2cc(O)ccc12)NO",
    "IC50": "214 nM"
  }
]

In: Suppose we examine the molecule "O=C(CCCCCn1cc(-c2ccc(C(=O)c3c(-c4ccc(O)cc4)sc4cc(O)ccc34)cc2)nn1)NO" ; what IC50 value has been reported?
Out: 5740 nM

In: # lookup: IC50 of "O=C(CCCCCCn1cc(-c2ccc(C(=O)c3c(-c4ccc(O)cc4)sc4cc(O)ccc34)cc2)nn1)NO"
Out: 748 nM
